test: Metabolic stability in liver microsomes assessed as intrinsic clearance after 30 mins by LC/MS/MS analysis in presence of NADPH; format: ADME, Microsome; conditions: 0.5 h
value type: clearance (µL/min/mg)
Give the quantity in µL/min/mg, number only.

Enquiry: Recorded clearance for CN[C@@H](C)C(=O)Nc1ccc(Oc2ccc(OC)cc2)c(C(=O)NCc2csc(-c3cccs3)n2)c1 , please?
Return: 47.7
